Source of measurements: BindingDB's records for doi:10.1021/jm9811256

procedure_summary: Inhibitory activity against varicella zoster virus thymidine kinase (VZV TK-) 07/1 strain
readout_label: EC50

Record excerpt, results attached:
Nc1nc(O)nc2c1ncn2CCOCP(=O)(O)O > 172 µM
Nc1cnn(CCOCP(=O)(O)O)c(=O)n1 > 399 µM
Nc1nccc(OCCOCP(=O)(O)O)n1 > 401 µM
CC(C)OP(=O)(COCCn1cnc2c(S)ncnc21)OC(C)C > 133 µM
Nc1ncnc2c1nc(Br)n2CCOCP(=O)(O)O > 142 µM
CC(C)CCCCCOP(=O)(COCCn1cnc2c(Cl)nc(N)nc21)OCCCCCC(C)C > 3.75 µM
CC(C)OP(=O)(O)COCCn1cnc2c(N)ncnc21 > 158 µM

We now examine a further molecule.
Asked: Name the recorded EC50 of the molecule listed here: Nc1nc(=O)ccn1CCOCP(=O)(O)O
Given back: > 401 µM

----------
procedure_summary: Inhibitory activity against herpes simplex virus type 1 (HSV-1) thymidine kinase (TK) VMW 1837 strain
Listed here are compounds together with their documented EC50.

Record excerpt, results attached:
O=P(O)(O)COCCn1cnc2c(S)ncnc21 > 1370 µM
CC(C)CCCCCOP(=O)(COCCn1cnc2c(Cl)nc(N)nc21)OCCCCCC(C)C > 30 µM
Nc1nc(O)c2c(ncn2CCOCP(=O)(O)O)n1 > 691 µM

We now examine a further compound.
Asked: Name the recorded EC50 of the compound listed here: Nc1cccc2c1ncn2CCOCP(=O)(O)O
Given back: > 1470 µM

----------
Listed here are compounds together with their documented pEC50.
procedure_summary: Inhibitory activity against varicella zoster virus thymidine kinase (VZV TK+) OKA strain
pEC50: −log10 of the molar value.

Asked: Name the recorded pEC50 of the compound listed here: Nc1nnc(N)c2c1ncn2CCOCP(=O)(O)O
Given back: < 3.76

----------
Listed here are compounds together with their documented pEC50.
procedure_summary: Inhibitory activity against varicella zoster virus thymidine kinase (VZV TK+) YS strain
pEC50: −log10 of the molar value.

Record excerpt, results attached:
CC(C)OP(=O)(COCCn1c(Br)nc2c(N)nc(N)nc21)OC(C)C < 3.96
Nc1nccc(OCCOCP(=O)(O)O)n1 < 3.40
CC(C)OP(=O)(COCCn1c(Br)nc2c(O)nc(N)nc21)OC(C)C < 3.96
Nc1cnn(CCOCP(=O)(O)O)c(=O)n1 < 3.40

Asked: Name the recorded pEC50 of the compound listed here: CC(C)OP(=O)(COCCn1cnc2c(S)ncnc21)OC(C)C
Given back: < 3.88

----------
Listed here are compounds together with their documented EC50.
procedure_summary: Inhibitory activity against varicella zoster virus thymidine kinase (VZV TK+) YS strain

Nc1cc(N)c2ncn(CCOCP(=O)(O)O)c2n1 > 174 µM
Nc1cccc2c1ncn2CCOCP(=O)(O)O > 184 µM
Nc1ncnc2c1nc(Br)n2CCOCP(=O)(O)O > 142 µM
Cc1nc(N)nc2c1ncn2CCOCP(=O)(O)O > 174 µM

Asked: Name the recorded EC50 of the compound listed here: Nc1nc(O)nc2c1ncn2CCOCP(=O)(O)O
Given back: > 172 µM

Asked: Name the recorded EC50 of the compound listed here: CC(C)OP(=O)(O)COCCn1cnc2c(N)nc(N)nc21
Given back: > 151 µM

Asked: Name the recorded EC50 of the compound listed here: Nc1nc(O)c2c(ncn2CCOCP(=O)(O)O)n1
Given back: > 172 µM

Asked: Name the recorded EC50 of the compound listed here: CSc1ncnc2c1ncn2CCOCP(=O)(O)O
Given back: > 1310 µM

Asked: Name the recorded EC50 of the compound listed here: O=P(O)(O)COCCn1cnc2c(S)ncnc21
Given back: > 172 µM

Asked: Name the recorded EC50 of the compound listed here: Nc1nnc(N)c2c1ncn2CCOCP(=O)(O)O
Given back: > 173 µM

----------
procedure_summary: Inhibitory activity against varicella zoster virus thymidine kinase (VZV TK+) OKA strain
Listed here are molecules together with their documented EC50.

CC(C)OP(=O)(COCCn1ncc(N)nc1=O)OC(C)C > 299 µM

Asked: Name the recorded EC50 of the molecule listed here: CC(C)CCCCCOP(=O)(COCCn1cnc2nc(N)nc(Cl)c21)OCCCCCC(C)C
Given back: > 9.39 µM

Asked: Name the recorded EC50 of the molecule listed here: CC(C)OP(=O)(COCCn1cnc2nc(N)nc(O)c21)OC(C)C
Given back: > 133 µM

Asked: Name the recorded EC50 of the molecule listed here: CC(C)OP(=O)(COCCn1cnc2c(S)ncnc21)OC(C)C
Given back: > 133 µM

Asked: Name the recorded EC50 of the molecule listed here: Nc1cnn(CCOCP(=O)(O)O)c(=O)n1
Given back: > 399 µM

Asked: Name the recorded EC50 of the molecule listed here: Nc1cc(N)c2ncn(CCOCP(=O)(O)O)c2n1
Given back: > 174 µM

Asked: Name the recorded EC50 of the molecule listed here: Nc1ncnc2c1nc(Br)n2CCOCP(=O)(O)O
Given back: > 142 µM
